PROTOCOL TEXT: Toxicity against mouse HMC incubated for 24 hrs
CONDITION SUMMARY: HMC cells, read-out: LC50
Record form. Attribute: CC50 at 24 h. Fill in for each entry.
Provide the measurement as a number trailed by its unit.

So what does the record say about CC50 at 24 h for Cc1ccc(SC2C3=C(OC2(C)C)c2ccccc2C(=O)C3=O)cc1 (centres undefined) ?
20.5 µM

So what does the record say about CC50 at 24 h for CC1(C)OC2=C(C(=O)C(=O)c3ccccc32)C1Sc1ccc(Cl)cc1 (centres undefined) ?
38.9 µM

So what does the record say about CC50 at 24 h for CC1(C)OC2=C(C(=O)C(=O)c3ccccc32)C1Sc1ccccc1 (centres undefined) ?
17.5 µM

We next turn to a different molecule, shown below.
So what does the record say about CC50 at 24 h for Cc1cccc(SC2C3=C(OC2(C)C)c2ccccc2C(=O)C3=O)c1 (centres undefined) ?
25.8 µM

Cited source: ChEMBL document CHEMBL3593167
